ASSAY TARGET: Rac GTPase-activating protein 1 (Homo sapiens) (UniProt Q9H0H5)
Sequence (Q9H0H5 whole entry, looked up): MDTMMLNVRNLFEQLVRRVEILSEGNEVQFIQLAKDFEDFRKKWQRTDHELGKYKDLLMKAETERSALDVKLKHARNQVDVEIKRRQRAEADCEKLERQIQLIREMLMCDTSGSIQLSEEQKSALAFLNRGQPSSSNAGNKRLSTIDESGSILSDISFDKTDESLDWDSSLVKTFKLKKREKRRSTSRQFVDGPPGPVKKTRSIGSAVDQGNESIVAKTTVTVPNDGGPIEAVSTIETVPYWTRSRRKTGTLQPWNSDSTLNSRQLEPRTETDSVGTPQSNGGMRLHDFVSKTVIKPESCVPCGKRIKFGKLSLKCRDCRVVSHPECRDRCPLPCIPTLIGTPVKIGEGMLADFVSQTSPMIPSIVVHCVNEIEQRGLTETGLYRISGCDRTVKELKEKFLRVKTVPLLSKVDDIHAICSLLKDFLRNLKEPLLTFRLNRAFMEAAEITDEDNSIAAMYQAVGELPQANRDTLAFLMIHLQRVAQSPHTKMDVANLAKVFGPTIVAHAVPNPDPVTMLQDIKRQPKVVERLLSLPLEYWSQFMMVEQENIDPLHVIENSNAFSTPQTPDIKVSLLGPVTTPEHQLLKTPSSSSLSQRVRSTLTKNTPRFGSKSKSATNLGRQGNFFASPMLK
MEASUREMENT DESCRIPTION: blockers of MgcRacGAP-driven Rac1 GTP hydrolysis – biochemical, ADP Hunter fluorescence, primary and confirmatory, confirmation (AID 624330);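 further: fluorescence reports GDP produced by GAP-driven GTP hydrolysis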
STATED CONDITIONS: MgcRacGAP-stimulated Rac1 GTP hydrolysis, at 30 µM, stronger effect = higher value, GST-tagged Rac1 F28L mutant substrate
The whole screen tested about 340,000 compounds, of which about 2,100 (0.62%) were called active. The list is a sample of the results. Entries with a potency or affinity are not part of this list.
Label rule, in plain words: inhibition of 5% and up is 1.0, under 5% is 0.0.

# COMPOUND, CLASSIFICATION
records = [
    ("CCc1c(C)nc(SCC(=O)N2CCCCC2)[nH]c1=O", 0.0),
    ("Cc1ccc(Cl)c(NC(=O)CN2C(=O)C(C)N(c3ccc(F)cc3)C2=O)c1Cl (stereo not given)", 1.0),
    ("O=C(Nc1nc2ccc(F)cc2s1)C1CC(=O)N(c2ccc3c(c2)OCCO3)C1 (stereo not given)", 0.0),
    ("O=C(O)/C=C/C(=O)Nc1ccc(OCc2ccccc2)cc1", 1.0),
    ("CC1CCC2(CC1)NC(=O)N(CC(=O)Nc1cccc(S(=O)(=O)N3CCCC3)c1)C2=O (stereo not given)", 0.0),
]
